Molecular target: Flt-3 (baculovirus expressed human Flt-3 kinase domain R571-S993) (Homo sapiens, UniProt P36888)
Construct: human Flt-3 kinase domain R571-S993; host or cells: baculovirus expression
Sequence (P36888 571-993): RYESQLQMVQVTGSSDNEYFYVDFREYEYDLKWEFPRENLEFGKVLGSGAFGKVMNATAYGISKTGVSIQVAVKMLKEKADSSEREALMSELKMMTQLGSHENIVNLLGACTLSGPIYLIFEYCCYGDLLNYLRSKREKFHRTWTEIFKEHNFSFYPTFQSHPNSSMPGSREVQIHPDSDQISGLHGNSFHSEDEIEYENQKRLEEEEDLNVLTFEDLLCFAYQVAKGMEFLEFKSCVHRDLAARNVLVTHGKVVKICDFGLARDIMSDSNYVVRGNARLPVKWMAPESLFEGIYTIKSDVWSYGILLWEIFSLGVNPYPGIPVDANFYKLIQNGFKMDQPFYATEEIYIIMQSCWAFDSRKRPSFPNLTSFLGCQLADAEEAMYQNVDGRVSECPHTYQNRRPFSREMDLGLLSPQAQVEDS
Assay: biochemical
Settings: read-out: flt3 IC50
measurement.kind: IC50

Examples with their reported IC50 follow.
// query IC50 value for entry CCN(CC)CCCOc1cc2ncnc(Oc3ccc(NC(=O)C4(C(=O)Nc5ccc(F)cc5)CCC4)cc3F)c2cc1OC [Example 380]
50 to 500 nM

Similarly, COc1cc2nccc(Oc3ccc(NC(=O)C4(C(=O)Nc5ccc(F)cc5)CC4)cc3F)c2cc1OC [Example 319] ?
< 50 nM

Similarly, CCN(CC)CCCOc1cc2ncnc(Oc3ccc(NC(=O)C4(C(=O)Nc5ccc(F)cc5)[C@H](C)[C@H]4C)cc3F)c2cc1OC (stereo partly drawn) [Example 389] ?
50 to 500 nM

Field: IC50. Fill in for each record below.
1. COc1cc2c(Oc3ccc(NC(=O)C4(C(=O)Nc5ccc(F)cc5)CCC4)cc3F)ccnc2cc1OCCCN1CCN(C)CC1 [Example 385]
2. COCCNC(=O)C(=O)Nc1ccc(Oc2ccnc3cc(OCC4CCNCC4)c(OC)cc23)c(F)c1 [Example 296]
3. COc1cc2ncnc(Oc3ccc(NC(=O)C4(C(=O)Nc5ccc(F)cc5)CC4)cc3F)c2cc1OC [Example 311]
4. COc1cc2c(Oc3ccc(NC(=O)[C@]4(C(=O)Nc5ccc(F)cc5)C[C@@H]4C)cc3F)ccnc2cc1OCCCN1CCNCC1 [Example 364]
5. COc1cc2c(Oc3ccc(NC(=O)[C@@]4(C(=O)Nc5ccc(F)cc5)[C@H](C)[C@@H]4C)cc3F)ncnc2cc1OCCCN1CCN(C)CC1 [Example 368]
6. COc1cc2c(Oc3ccc(NC(=O)C4(C(=O)Nc5ccc(F)cc5)CC4)cc3F)ccnc2cc1OCCCN1CCN(C(=O)OC(C)(C)C)CC1 [Example 346]

1: 500 to 5000 nM; 2: 50 to 500 nM; 3: < 50 nM; 4: < 50 nM; 5: 50 to 500 nM; 6: 50 to 500 nM

====

Target: Flt-3 (baculovirus expressed human Flt-3 kinase domain R571-S993) (Homo sapiens, UniProt P36888)
Construct: human Flt-3 kinase domain R571-S993; host or cells: baculovirus expression
Experiment: biochemical
Conditions: Table 4, inhibition as IC50 class; read-out: flt3 IC50
pIC50: −log10 of the molar value.
Hi there, I'd appreciate the recorded pIC50 for every entry that follows.

// query pIC50 value for entry "COc1cc2c(Oc3ccc(NC(=O)C(=O)NCc4cc(C(F)(F)F)ccc4Cl)cc3F)ccnc2cc1OCC1CCNCC1"
> 7.30

Field: pIC50. Fill in for each record below.
1. COc1cc2c(Oc3ccc(NC(=O)C(=O)NC(C)c4ccc(Br)cc4)cc3F)ccnc2cc1OCC1CCNCC1 (stereo not shown)
2. COc1cc2c(Oc3ccc(NC(=O)C(=O)NCCC(C)(C)C)cc3F)ccnc2cc1OCC1CCNCC1
3. COc1cc2c(Oc3ccc(NC(=O)C(=O)NCC(C)c4ccccc4)cc3F)ccnc2cc1OCC1CCNCC1 (stereo not shown)

1. 6.30 to 7.30
2. > 7.30
3. > 7.30

====

Target: Flt-3 (baculovirus expressed human Flt-3 kinase domain R571-S993) (Homo sapiens, UniProt P36888)
Construct: human Flt-3 kinase domain R571-S993; host or cells: baculovirus expression
Sequence (P36888 571-993): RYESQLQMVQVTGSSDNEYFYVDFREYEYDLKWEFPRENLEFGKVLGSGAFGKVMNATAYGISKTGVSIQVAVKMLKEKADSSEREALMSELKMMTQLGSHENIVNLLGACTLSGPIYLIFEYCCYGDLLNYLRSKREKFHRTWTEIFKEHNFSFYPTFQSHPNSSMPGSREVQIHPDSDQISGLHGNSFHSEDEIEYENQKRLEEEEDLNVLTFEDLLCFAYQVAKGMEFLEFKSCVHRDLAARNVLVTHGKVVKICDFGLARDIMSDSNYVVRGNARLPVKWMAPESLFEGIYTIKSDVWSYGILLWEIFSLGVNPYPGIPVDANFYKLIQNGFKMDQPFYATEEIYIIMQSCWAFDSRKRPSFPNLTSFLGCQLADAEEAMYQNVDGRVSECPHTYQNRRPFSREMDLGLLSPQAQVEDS
Test: biochemical
Conditions: Table 4, inhibition as IC50 class; read-out: flt3 IC50
measurement.kind: IC50

// query IC50 value for entry "COc1cc2c(Oc3ccc(NC(=O)C(=O)NCCc4ccc(C)cc4)cc3F)ccnc2cc1OCC1CCNCC1"
< 50 nM

Similarly, "COc1cc2c(Oc3ncc(NC(=O)CC(=O)Nc4ccc(F)cc4)cc3Cl)ccnc2cc1OCCCN1CCCCC1" ?
< 50 nM

Similarly, "COc1cc2c(Oc3ccc(NC(=O)C(=O)NCc4cccc(C(F)(F)F)c4F)cc3F)ccnc2cc1OCC1CCNCC1" ?
< 50 nM

Similarly, "COc1cc2c(Oc3ccc(NC(=O)C(=O)NCCC(C)C)cc3F)ccnc2cc1OCC1CCNCC1" ?
50 to 500 nM

Similarly, "CCCCc1ccc(CNC(=O)C(=O)Nc2ccc(Oc3ccnc4cc(OCC5CCNCC5)c(OC)cc34)c(F)c2)cc1" ?
50 to 500 nM

Field: IC50. Fill in for each record below.
1. COc1cc2c(Oc3ccc(NC(=O)C(=O)NCCOc4ccccc4)cc3F)ccnc2cc1OCC1CCNCC1
2. COc1cc2c(Oc3ccc(NC(=O)C(=O)Nc4ccccc4)cc3F)ccnc2cc1OCC1CCN(C)CC1
3. COc1cc2c(Oc3ccc(NC(=O)C(=O)NCc4cc(Cl)cc(Cl)c4)cc3F)ccnc2cc1OCC1CCNCC1
4. COc1cc2c(Oc3ccc(NC(=O)C(=O)NCc4cccc(F)c4F)cc3F)ccnc2cc1OCC1CCNCC1
5. CCN(CC)CCCOc1cc2nccc(Oc3ncc(NC(=O)CC(=O)Nc4ccc(F)cc4)cc3Cl)c2cc1OC
6. COc1cc2c(Oc3ccc(NC(=O)C(=O)NCCc4ccc(Cl)c(Cl)c4)cc3F)ccnc2cc1OCC1CCNCC1
7. COc1cc2c(Oc3ccc(NC(=O)C(=O)NCc4cccc(OC(F)(F)F)c4)cc3F)ccnc2cc1OCC1CCNCC1
8. CC[C@H](NC(=O)C(=O)Nc1ccc(Oc2ccnc3cc(OCC4CCNCC4)c(OC)cc23)c(F)c1)c1ccccc1

1: < 50 nM; 2: 500 to 5000 nM; 3: < 50 nM; 4: 50 to 500 nM; 5: < 50 nM; 6: < 50 nM; 7: < 50 nM; 8: 50 to 500 nM

Field: IC50. Fill in for each record below.
1. COc1cc2c(Oc3ccc(NC(=O)C(=O)NCc4ccccc4OC(F)(F)F)cc3F)ccnc2cc1OCC1CCNCC1
2. COc1cc2c(Oc3ccc(NC(=O)C(=O)NCc4cc(C(F)(F)F)ccc4F)cc3F)ccnc2cc1OCC1CCNCC1

["< 50 nM", "< 50 nM"]

====

Hi there, I'd appreciate the recorded IC50 for every entry that follows.
Target: Flt-3 (baculovirus expressed human Flt-3 kinase domain R571-S993) (Homo sapiens, UniProt P36888);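 also: Luciferase-coupled chemiluminescent kinase assay, activity read as percent ATP left after a 3 h reaction at room temperature, ATP near KM, 10-point dose-response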
Construct: human Flt-3 kinase domain R571-S993; host or cells: baculovirus expression
Assay: biochemical
Conditions: read-out: flt3 IC50

Examples with their reported IC50 follow.
// query IC50 value for entry COc1cc2nccc(Oc3ccc(NC(=O)C4(C(=O)Nc5ccc(F)cc5)CN(Cc5ccccc5)C4)cc3)c2cc1OC [Example 352]
500 to 5000 nM

Similarly, COc1cc2c(Oc3ccc(NC(=O)C4(C(=O)Nc5ccc(F)cc5)CC4)cc3F)ccnc2cc1OCCCN1CCCCC1 [Example 313] ?
< 50 nM

Similarly, CCN(CC)CCOc1cc2c(Oc3ccc(NC(=O)C4(C(=O)Nc5ccc(F)cc5)CC4)cc3F)ccnc2cc1OC [Example 345] ?
< 50 nM

Field: IC50. Fill in for each record below.
1. COc1cc2nccc(Oc3ccc(NC(=O)C4(C(=O)Nc5cccc(CN6CCOCC6)c5)CC4)cc3)c2cc1OC [Example 396]
2. COc1cc2ncnc(Oc3ccc(NC(=O)C4(C(=O)Nc5ccc(F)cc5)CC4)cc3F)c2cc1OCCCN1CCOCC1 [Example 321]
3. COc1cc2c(Oc3ccc(NC(=O)C(=O)N[C@@H](Cc4ccccc4)C(=O)N4CCCC4)cc3F)ccnc2cc1OCC1CCNCC1 [Example 284]
4. CCN(CC)CCOc1cc2ncnc(Oc3ccc(NC(=O)[C@]4(C(=O)Nc5ccc(F)cc5)C[C@H]4C)cc3F)c2cc1OC [Example 348]

1: < 50 nM; 2: < 50 nM; 3: 50 to 500 nM; 4: 50 to 500 nM
